# System: LNCaP xenografts
# run_description: Biodistribution in LNCaP xenografts
# Type: in vivo, mice
# experimental_context: 1 h after injection
readout_label: Tumor-to-Liver ratio

>  <molecule>
O=C([O-])CN(CCN(CC(=O)[O-])Cc1cc(CCC(=O)NCCCCCC(=O)NCCCC[C@H](NC(=O)N[C@@H](CCC(=O)O)C(=O)O)C(=O)O)ccc1[O-])Cc1cc(CCC(=O)O)ccc1[O-].[68Ga+3].[OH3+] [[^68Ga]Ga-PSMA-11, reference compound]

>  <Tumor-to-Liver ratio>
23.5 ± 12.5

$$$$
>  <molecule>
O=C(O)CC[C@H](NC(=O)N[C@@H](CCCCNC(=O)[C@H](Cc1ccc2ccccc2c1)NC(=O)c1ccc(CNC(=O)[C@H](CCC(=O)O)NC(=O)[C@H](CCC(=O)O)NC(=O)c2ccc([18F])nc2)cc1)C(=O)O)C(=O)O [[^18F]PSMA-1007, reference compound]

>  <Tumor-to-Liver ratio>
11.3 ± 4.5

$$$$
>  <molecule>
O=C([O-])CN1CCN(CC(=O)[O-])CCN(C(CCC(=O)N[C@H](Cc2ccc(O)c(I)c2)C(=O)N[C@H](Cc2ccccc2)C(=O)N[C@H](CCCCNC(=O)CCCCCCC(=O)NCCCC[C@H](NC(=O)N[C@@H](CCC(=O)O)C(=O)O)C(=O)O)C(=O)O)C(=O)O)CC1.[61Cu+2] (stereo partly drawn) [[^61Cu]Cu-NODAGA-PSMA-I&T, NODAGA-(l-y)fk(sub-KuE)]

>  <Tumor-to-Liver ratio>
14.9 ± 4.9

$$$$

So, O=C([O-])CN1CCN(CC(=O)O)CCN(CC(=O)[O-])CCN(C(CCC(=O)N[C@H](Cc2ccc(O)c(I)c2)C(=O)N[C@H](Cc2ccccc2)C(=O)N[C@H](CCCCNC(=O)CCCCCCC(=O)NCCCC[C@H](NC(=O)N[C@@H](CCC(=O)O)C(=O)O)C(=O)O)C(=O)O)C(=O)O)CC1.[61Cu+2] (stereo partly drawn) [[^61Cu]Cu-DOTAGA-PSMA-I&T, DOTAGA-(l-y)fk(sub-KuE)] ? Its Tumor-to-Liver ratio was 0.32 ± 0.05

Data provenance: paper PMC11372264
